I'd appreciate it if you could supply inhibition at 1 µM values for the items below.
Subject of test: 17β-hydroxysteroid dehydrogenase type 1 (Homo sapiens, UniProt P14061)
Construct: expressed in transfected cells; host or cells: MCF-7
Sequence (P14061 whole entry): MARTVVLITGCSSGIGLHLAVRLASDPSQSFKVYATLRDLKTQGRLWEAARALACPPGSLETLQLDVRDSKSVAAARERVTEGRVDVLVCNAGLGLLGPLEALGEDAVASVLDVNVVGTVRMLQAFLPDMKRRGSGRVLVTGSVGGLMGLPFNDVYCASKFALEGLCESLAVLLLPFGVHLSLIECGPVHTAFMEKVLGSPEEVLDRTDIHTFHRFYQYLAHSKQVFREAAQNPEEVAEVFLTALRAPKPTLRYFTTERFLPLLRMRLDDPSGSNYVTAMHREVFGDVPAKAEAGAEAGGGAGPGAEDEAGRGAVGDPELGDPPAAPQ
Assay notes: Inhibition of 17β-HSD type 1 in MCF-7 cells stably expressing the isoenzyme (HPLC, tritium labeled estrone)
Type: cell-based
Test parameters: MCF7, 1 μM compound, 2 nM estrone, read-out: % Inhibition of the 17β-HSD enzyme type 1 (HSD1)
// unit must come after the numeric part

For each of the items listed, what is its inhibition at 1 µM?
1. CC(C)(C)C1CCc2c(sc3nc4n(c(=O)c23)CCCCC4)C1 (stereo not drawn)
2. CCSC1=C(C=O)CCc2c1sc1nc3n(c(=O)c21)CCCCC3
3. CCCSC1=C(C=O)CCc2c1sc1nc3n(c(=O)c21)CCCCCC3
4. O=C1CCCc2c1sc1nc3n(c(=O)c21)CCCC3
5. CCOC(=O)C1CCCn2c1nc1sc3c(c1c2=O)CCCC3 (stereo not drawn)
6. O=c1c2c3c(sc2nc2n1CCCCC2)C(Sc1ccccc1)=C(CO)CC3

// result
["-1%", "66.1%", "43.9%", "6.3%", "14.8%", "51.8%"]

---

Subject of test: 17β-hydroxysteroid dehydrogenase type 3 (Homo sapiens, UniProt P37058)
Construct: expressed in transfected cells; host or cells: MCF-7
Sequence (P37058 whole entry): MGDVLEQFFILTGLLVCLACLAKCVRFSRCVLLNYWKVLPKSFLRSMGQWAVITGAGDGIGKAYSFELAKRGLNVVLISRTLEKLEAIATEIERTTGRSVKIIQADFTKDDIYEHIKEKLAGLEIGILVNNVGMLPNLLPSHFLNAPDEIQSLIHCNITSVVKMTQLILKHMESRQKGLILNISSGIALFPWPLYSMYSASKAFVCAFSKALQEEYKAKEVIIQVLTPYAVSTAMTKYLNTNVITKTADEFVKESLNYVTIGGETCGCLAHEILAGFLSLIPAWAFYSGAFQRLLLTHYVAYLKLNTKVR
Assay notes: Inhibition of 17β-HSD type 3 in MCF-7 cells stably expressing the isoenzyme (HPLC, tritium labeled androstenedione)
Type: cell-based
Test parameters: MCF7, 10 μM compound, 2 nM androstenedione, read-out: % Inhibition of the 17β-HSD enzyme type 3 (HSD3)
I'd appreciate it if you could supply inhibition at 10 µM values for the items below.

Please review the following examples before continuing.
[
  {
    "Molecule": "CC1CCc2nc3sc4c(c3c(=O)n2CC1)CCC(C=O)=C4Cl (stereo not shown) [Compound 20]",
    "Subject of test": "17β-hydroxysteroid dehydrogenase type 3 (Homo sapiens, UniProt P37058)",
    "Experimental readout": "inhibition at 10 µM",
    "Result": "100%"
  },
  {
    "Molecule": "O=c1c2c3c(sc2nc2n1CCCCC2)C(Sc1ccccc1)=C(CO)CC3 [Compound 6a]",
    "Subject of test": "17β-hydroxysteroid dehydrogenase type 3 (Homo sapiens, UniProt P37058)",
    "Experimental readout": "inhibition at 10 µM",
    "Result": "48.9%"
  },
  {
    "Molecule": "O=C1CCc2c1sc1nc3n(c(=O)c21)CCCCC3 [Compound 3b]",
    "Subject of test": "17β-hydroxysteroid dehydrogenase type 3 (Homo sapiens, UniProt P37058)",
    "Experimental readout": "inhibition at 10 µM",
    "Result": "13.7%"
  },
  {
    "Molecule": "O=c1c2c3c(sc2nc2n1CCCC2)CCCC3 [Compound 2e]",
    "Subject of test": "17β-hydroxysteroid dehydrogenase type 3 (Homo sapiens, UniProt P37058)",
    "Experimental readout": "inhibition at 10 µM",
    "Result": "38.8%"
  },
  {
    "Molecule": "O=C1CCCc2c1sc1nc3ccccn3c(=O)c21 [Compound 26]",
    "Subject of test": "17β-hydroxysteroid dehydrogenase type 3 (Homo sapiens, UniProt P37058)",
    "Experimental readout": "inhibition at 10 µM",
    "Result": "0.3%"
  },
  {
    "Molecule": "CCOC(=O)C1CCCn2c1nc1sc3c(c1c2=O)CCCC3=O (stereo not shown) [Compound 18]",
    "Subject of test": "17β-hydroxysteroid dehydrogenase type 3 (Homo sapiens, UniProt P37058)",
    "Experimental readout": "inhibition at 10 µM",
    "Result": "21.3%"
  },
  {
    "Molecule": "CCCSC1=C(C=O)CCc2c1sc1nc3n(c(=O)c21)CCCCC3 [Compound 5c]",
    "Subject of test": "17β-hydroxysteroid dehydrogenase type 3 (Homo sapiens, UniProt P37058)",
    "Experimental readout": "inhibition at 10 µM",
    "Result": "100%"
  },
  {
    "Molecule": "CCCSC1=C(C=O)CCc2c1sc1nc3n(c(=O)c21)CCC(C(=O)OC)CC3 (stereo not shown) [Compound 23]",
    "Subject of test": "17β-hydroxysteroid dehydrogenase type 3 (Homo sapiens, UniProt P37058)",
    "Experimental readout": "inhibition at 10 µM",
    "Result": "89.5%"
  },
  {
    "Molecule": "CCCSC1=C(CO)CCc2c1sc1nc3n(c(=O)c21)CCCCC3 [Compound 6c]",
    "Subject of test": "17β-hydroxysteroid dehydrogenase type 3 (Homo sapiens, UniProt P37058)",
    "Experimental readout": "inhibition at 10 µM",
    "Result": "38.1%"
  },
  {
    "Molecule": "CCCSC1=C(C=O)CCc2c1sc1nc3n(c(=O)c21)CCCCCC3 [Compound 5i]",
    "Subject of test": "17β-hydroxysteroid dehydrogenase type 3 (Homo sapiens, UniProt P37058)",
    "Experimental readout": "inhibition at 10 µM",
    "Result": "80.5%"
  }
]

For each of the items listed, what is its inhibition at 10 µM?
1. O=c1c2c3c(sc2nc2n1CCC(CO)CC2)CCCC3 (stereo not shown) [Compound 35]
2. O=C(O)C1=C(Cl)c2sc3nc4n(c(=O)c3c2CC1)CCCCC4 [Compound 31]
3. CC1CCc2nc3sc4c(c3c(=O)n2CC1)CCCC4 (stereo not shown) [Compound 14]

// result
1. 23.4%
2. -3.9%
3. 34.2%

---

Subject of test: 17β-hydroxysteroid dehydrogenase type 2 (Homo sapiens)
Construct: expressed in transfected cells; host or cells: MCF-7
Assay notes: Inhibition of 17β-HSD type 2 in MCF-7 cells stably expressing the isoenzyme (HPLC, tritium labeled estradiol)
Assay type: cell-based
Test parameters: MCF7, 1 μM compound, 2 nM estradiol, read-out: % Inhibition of the 17β-HSD enzyme type 2 (HSD2)
Binary call on inhibition at 1 µM: 1.0 from 10% upward, 0.0 beneath that.

Solved cases (5 shown):
[
  {
    "Molecule": "O=c1c2c3c(sc2nc2n1CCCCC2)C(Sc1ccccc1)=C(CO)CC3 [Compound 6a]",
    "Class label": 1.0
  },
  {
    "Molecule": "CC1CCc2nc3sc4c(c3c(=O)n2CC1)CCCC4 (stereo not drawn) [Compound 14]",
    "Class label": 0.0
  },
  {
    "Molecule": "CCCSC1=C(C=O)CCc2c1sc1nc3n(c(=O)c21)CCC(C(=O)O)CC3 (stereo not drawn) [Compound 33]",
    "Class label": 0.0
  },
  {
    "Molecule": "O=C1CCc2c1sc1nc3n(c(=O)c21)CCCCC3 [Compound 3b]",
    "Class label": 1.0
  },
  {
    "Molecule": "CC1CCc2c(sc3nc4n(c(=O)c23)CCCCC4)C1O (stereo not drawn) [Compound 32]",
    "Class label": 1.0
  }
]

Field: next molecule
// query Given the entry O=c1c2c3c(sc2nc2n1CCCCC2)CCCC3 [Compound 2a] , answer whether its inhibition at 1 µM meets or surpasses 10%.
// result 1.0

---

Subject of test: 17β-hydroxysteroid dehydrogenase type 2 (Homo sapiens, UniProt P37059)
Construct: expressed in transfected cells; host or cells: MCF-7
Sequence (P37059 whole entry): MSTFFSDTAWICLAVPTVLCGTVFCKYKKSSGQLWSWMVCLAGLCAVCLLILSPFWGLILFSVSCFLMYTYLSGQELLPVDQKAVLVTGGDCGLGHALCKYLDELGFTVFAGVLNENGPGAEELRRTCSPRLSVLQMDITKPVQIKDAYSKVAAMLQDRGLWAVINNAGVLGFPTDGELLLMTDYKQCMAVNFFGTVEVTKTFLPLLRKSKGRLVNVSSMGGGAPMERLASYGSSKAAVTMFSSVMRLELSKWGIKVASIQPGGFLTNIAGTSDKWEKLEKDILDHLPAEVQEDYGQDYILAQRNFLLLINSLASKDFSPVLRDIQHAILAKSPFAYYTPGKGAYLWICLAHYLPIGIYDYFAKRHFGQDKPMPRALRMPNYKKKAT
Assay notes: Inhibition of 17β-HSD type 2 in MCF-7 cells stably expressing the isoenzyme (HPLC, tritium labeled estradiol)
Assay type: cell-based
Test parameters: MCF7, 10 μM compound, 2 nM estradiol, read-out: % Inhibition of the 17β-HSD enzyme type 2 (HSD2)
From the text: Biological Testing Materials and Methods 1. Inhibition of the 17β-hydroxysteroid dehydrogenase type 1, type 2 and type 3 enzyme The compounds were screened in respect of 17β-HSD enzyme activity in vitro on established M CF-7 cell lines, each stably expressing one of the respective 17β-HSD isoenzymes. The interconversion of substrate by each isoenzyme and the 17β-HSD inhibiting activity of chemical compounds in these cell lines were detected by HPLC system. […]
I'd appreciate it if you could supply inhibition at 10 µM values for the items below.
// unit must come after the numeric part

Please review the following examples before continuing.
[
  {
    "Molecule": "CC1CCc2nc3sc4c(c3c(=O)n2CC1)CCCC4 (centres unmarked)",
    "inhibition at 10 µM": "14.9%"
  },
  {
    "Molecule": "O=c1c2c3c(sc2nc2n1CCCCC2)CCCC3",
    "inhibition at 10 µM": "23.4%"
  },
  {
    "Molecule": "CCOC(=O)C1CCc2nc3sc4c(c3c(=O)n2CC1)CCCC4=O (centres unmarked)",
    "inhibition at 10 µM": "4.4%"
  },
  {
    "Molecule": "O=c1c2c3c(sc2nc2n1CCC2)CCCC3",
    "inhibition at 10 µM": "32.4%"
  }
]

For each of the items listed, what is its inhibition at 10 µM?
1. O=c1c2c3c(sc2nc2n1CCCCC2)CCCCC3
2. O=c1c2c3c(sc2nc2n1CCC(CO)CC2)CCCC3 (centres unmarked)
3. O=Cc1ccc2c(sc3nc4n(c(=O)c32)CCCCC4)c1Sc1ccccc1
4. O=c1c2c3c(sc2nc2ccccn12)CCCC3
5. CCOC(=O)C1CCc2nc3sc4c(c3c(=O)n2CC1)CCC(C=O)=C4Cl (centres unmarked)

// result
1: 13.5%; 2: 27.7%; 3: 8.9%; 4: 33.6%; 5: 32.9%

For each of the items listed, what is its inhibition at 10 µM?
1. CC(C)SC1=C(C=O)CCc2c1sc1nc3n(c(=O)c21)CCCCC3
2. O=c1c2c3c(sc2nc2n1CCCCC2)CCC3

// result
20.2%
21.4%
